TARGET ENTITY: first (BD1: amino acids K57-E168) bromodomain of BRD4 (Homo sapiens, UniProt O60885)
Construct: His-tagged first (BD1: amino acids K57-E168)
ASSAY OVERVIEW: TR-FRET bromodomain binding assay, BRD4 BD1
CONDITION INFO: TR-FRET assay protocol (A-G, compound concentration range); Ki calculated from IC50, probe Kd and probe concentration; read-out: TR-FRET Binding Ki: BRD4 (BDI_K57-E168)
MEASURED PARAMETER: Ki

# per-item lookup of Ki; items listed below
1. CCS(=O)(=O)c1ccc(OCC2CC2)c(-c2cc(NC(C)=O)c(=O)n(C)c2)c1
2. Cn1nc(-c2ccccc2Oc2ccccc2)c(-c2ccc(C3=NCCCO3)cc2)cc1=O
3. CCS(=O)(=O)Nc1ccc(Oc2ccc(F)cc2F)c(-c2ccc(=O)n(C)c2)c1
4. Cn1nc(-c2ccccc2-c2cccc(C#N)c2)ccc1=O
5. CC(C)COc1cccc(-c2cc(=O)n(C)nc2-c2ccccc2Oc2ccccc2)c1
6. Cn1nc(-c2ccccc2Oc2ccc(C#N)cc2)ccc1=O
7. CN1CCN(Cc2ccc(-c3cc(=O)n(C)cc3-c3cc(NS(C)(=O)=O)ccc3Oc3ccc(F)cc3F)cc2)CC1
8. Cc1cc(-c2cc(NS(C)(=O)=O)ccc2Oc2ccccc2)c[nH]c1=O

Out:
["600 nM", "172 nM", "34.6 nM", "> 11500 nM", "> 13000 nM", "851 nM", "4.58 nM", "25.9 nM"]

# per-item lookup of Ki; items listed below
1. CCS(=O)(=O)Nc1ccc(Oc2ccc(F)cc2F)c(-c2cn(C)c(=O)cc2O[C@H]2CC[C@H](N(C)C)CC2)c1
2. CCOc1cc(=O)n(C)cc1-c1cc(NS(C)(=O)=O)ccc1Oc1ccc(F)cc1F

Out:
1: 50 nM; 2: 10.7 nM
